Tested on: Wnt-responsive promoter driving firefly luciferase in SW480 cells
Experiment: Wnt reporter (SP5 promoter-luciferase) screening assay in SW480 cells
Format: cell-based
Details: Homo sapiens, 24-40 h, top concentration ten micromolar
From the text: Another screening assay for Wnt activity is described as follows. […] Cultured SW480 cells bearing a reporter construct can be distributed at approximately 10,000 cells per well into 96 well or 384 well plates. […] Twenty-four to forty hours after the addition of compound, reporter activity for luciferase can be assayed, for example, by addition of the BrightGlo luminescence reagent (Promega) and the Victor3 plate reader (Perkin Elmer). […]
pEC50: −log10 of the molar value.
ENDPOINT LABEL: pEC50

Examples with their reported pEC50 follow.
{"columns": ["MOL SMILES", "ENDPOINT LABEL", "OBSERVED MEASUREMENT"],
 "data": [
  ["O=C(Nc1ccc(Oc2cccc(F)c2)nc1)c1n[nH]c2ccc(-c3cccnc3)cc12", "pEC50", 6.97],
  ["O=C(Nc1ccc(N2CCCC2)nc1)c1n[nH]c2ccc(-c3cncc(CN4CCC(O)CC4)c3)cc12", "pEC50", 7.37]
]}

[I] CN1CCN(c2ccc(NC(=O)c3n[nH]c4ccc(-c5cncc(NC(=O)C6CC6)c5)cc34)cn2)CC1
[II] O=C(Nc1ccc(N2CCCC2)nc1)c1n[nH]c2ccc(-c3cccnc3)cc12
[III] O=C(Nc1ccc(N2CCCCC2)nc1)c1n[nH]c2ccc(-c3cncc(CN4CCCCC4)c3)cc12
[IV] O=C(Nc1cccc(F)c1)c1n[nH]c2ccc(-c3cncc(CN4CCCCC4)c3)cc12
Prompt: Sort these molecules on pEC50 so the largest reading comes first. Use the labels to give the requested order.
Completion: III, II, I, IV

----------
Test system: Wnt-responsive promoter driving firefly luciferase in SW480 cells
Assay: Wnt reporter (SP5 promoter-luciferase) screening assay in SW480 cells
Type: cell-based
Details: Homo sapiens, 24-40 h, top concentration ten micromolar
ENDPOINT LABEL: EC50 (nM)

Examples with their reported EC50 follow.
{"columns": ["MOL SMILES", "EC50 [nM]"],
 "data": [
  ["O=C(Nc1ccnnc1)c1n[nH]c2ccc(-c3cncc(CN4CCCCC4)c3)cc12", 40],
  ["O=C(Nc1ccc(N2CCCC2)nc1)c1n[nH]c2ccc(-c3cncc(CN4CCC(F)(F)C4)c3)cc12", 49],
  ["CN(C)Cc1cncc(-c2ccc3[nH]nc(C(=O)Nc4ccc(N5CCCC5)nc4)c3c2)c1", 1200],
  ["O=C(Nc1cccnc1)c1n[nH]c2ccc(-c3cncc(F)c3)cc12", 1250],
  ["CN(C)Cc1cncc(-c2ccc3[nH]nc(C(=O)Nc4ccc(Oc5ccccc5F)nc4)c3c2)c1", 275],
  ["O=C(Nc1ccc(N2CCNCC2)nc1)c1n[nH]c2ccc(-c3cncc(CN4CCCCC4)c3)cc12", 183]
]}

[I] O=C(Nc1ccc(N2CCCC2)nc1)c1n[nH]c2ccc(-c3cncc(CN4CCCCC4)c3)cc12
[II] O=C(Nc1cccnc1)c1n[nH]c2ccc(-c3cncc(N4CCCC4)c3)cc12
[III] O=C(NC1CCCCC1)c1n[nH]c2ccc(-c3cncc(CN4CCCCC4)c3)cc12
Prompt: Endpoint returns the given compounds ordered by ascending EC50. Use the labels to give the requested order.
Completion: I, II, III
(I: 25 nM, II: 85 nM, III: 2650 nM)

[I] CN1CCN(c2ccc(NC(=O)c3n[nH]c4ccc(-c5cccnc5)cc34)cn2)CC1
[II] O=C(NC1CCCC1)c1ccc(NC(=O)c2n[nH]c3ccc(-c4cccnc4)cc23)cn1
[III] CCOc1ccc(NC(=O)c2n[nH]c3ccc(-c4cncc(CN5CCCC5)c4)cc23)cn1
[IV] O=C(Nc1cccnc1)c1n[nH]c2ccc(-c3cncc(CN4CCOCC4)c3)cc12
[V] O=C(Nc1cccnc1)c1n[nH]c2ccc(-c3ccc(N4CCCC4)nc3)cc12
Prompt: Endpoint returns the given compounds ordered by ascending EC50. Use the labels to give the requested order.
Completion: IV, V, II, I, III

[a] CN1CCN(Cc2cncc(NC(=O)c3n[nH]c4ccc(-c5cncc(CN6CCCCC6)c5)cc34)c2)CC1
[b] O=C(Nc1cccnc1)c1n[nH]c2ccc(-c3cncc(Cc4ccccc4)c3)cc12
Prompt: Which value of EC50 is numerically greater: that of a or that of b ? Give the label under which the chosen entry appears.
Completion: a
(a: 67 nM, b: 44 nM)

Cited source: patent US10806726B2
